Here's a batch of compounds along with measured IC50 for JAK1 (Homo sapiens (Human)).
Numeric only. Scale: nM

C=CC(=O)N(C)c1cc(Nc2ncc(Cl)c(NCCCNC(=O)c3ccc(C(F)(F)F)cc3)n2)ccc1F    279

Kindly consider the entry below.
-- ask Form entry - test system: JAK1 (Homo sapiens (Human)); read-out: IC50; compound: C=CC(=O)N(C)c1cc(Nc2ncc(Cl)c(NCCCNC(=O)c3ccc(C#N)cc3)n2)ccc1F
Sequence (P23458 whole entry, species assumed): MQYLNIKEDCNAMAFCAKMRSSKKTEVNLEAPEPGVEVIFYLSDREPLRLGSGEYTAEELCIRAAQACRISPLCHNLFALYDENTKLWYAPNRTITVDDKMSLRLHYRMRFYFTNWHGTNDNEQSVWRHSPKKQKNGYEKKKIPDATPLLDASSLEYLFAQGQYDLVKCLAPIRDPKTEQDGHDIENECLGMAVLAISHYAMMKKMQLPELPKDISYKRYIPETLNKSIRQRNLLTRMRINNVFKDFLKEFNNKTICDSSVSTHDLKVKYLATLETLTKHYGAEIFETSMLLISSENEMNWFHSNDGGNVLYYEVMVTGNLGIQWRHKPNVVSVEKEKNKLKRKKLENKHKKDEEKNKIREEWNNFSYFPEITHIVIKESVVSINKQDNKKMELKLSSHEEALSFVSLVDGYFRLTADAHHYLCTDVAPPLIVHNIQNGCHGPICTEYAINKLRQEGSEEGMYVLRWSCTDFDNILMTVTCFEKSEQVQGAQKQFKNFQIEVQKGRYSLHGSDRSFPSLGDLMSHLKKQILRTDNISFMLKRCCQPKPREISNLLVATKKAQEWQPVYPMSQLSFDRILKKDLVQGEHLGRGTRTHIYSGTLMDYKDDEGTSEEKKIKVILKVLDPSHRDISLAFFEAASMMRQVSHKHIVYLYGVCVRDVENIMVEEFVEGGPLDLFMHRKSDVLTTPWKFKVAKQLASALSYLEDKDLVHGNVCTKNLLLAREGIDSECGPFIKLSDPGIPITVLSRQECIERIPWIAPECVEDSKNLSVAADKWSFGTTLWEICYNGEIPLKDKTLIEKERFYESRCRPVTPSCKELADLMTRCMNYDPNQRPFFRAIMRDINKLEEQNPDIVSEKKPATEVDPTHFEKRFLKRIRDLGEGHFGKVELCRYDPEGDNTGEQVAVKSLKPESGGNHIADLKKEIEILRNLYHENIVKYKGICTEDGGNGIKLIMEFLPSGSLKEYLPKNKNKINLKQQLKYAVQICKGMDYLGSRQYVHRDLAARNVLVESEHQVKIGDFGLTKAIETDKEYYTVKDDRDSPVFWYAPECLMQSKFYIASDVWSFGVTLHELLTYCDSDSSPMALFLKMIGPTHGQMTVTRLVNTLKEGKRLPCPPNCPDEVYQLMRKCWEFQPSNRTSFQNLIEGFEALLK
-- reply 105

----------
# Target System: JAK2 (Homo sapiens (Human))
# Sequence (O60674 whole entry): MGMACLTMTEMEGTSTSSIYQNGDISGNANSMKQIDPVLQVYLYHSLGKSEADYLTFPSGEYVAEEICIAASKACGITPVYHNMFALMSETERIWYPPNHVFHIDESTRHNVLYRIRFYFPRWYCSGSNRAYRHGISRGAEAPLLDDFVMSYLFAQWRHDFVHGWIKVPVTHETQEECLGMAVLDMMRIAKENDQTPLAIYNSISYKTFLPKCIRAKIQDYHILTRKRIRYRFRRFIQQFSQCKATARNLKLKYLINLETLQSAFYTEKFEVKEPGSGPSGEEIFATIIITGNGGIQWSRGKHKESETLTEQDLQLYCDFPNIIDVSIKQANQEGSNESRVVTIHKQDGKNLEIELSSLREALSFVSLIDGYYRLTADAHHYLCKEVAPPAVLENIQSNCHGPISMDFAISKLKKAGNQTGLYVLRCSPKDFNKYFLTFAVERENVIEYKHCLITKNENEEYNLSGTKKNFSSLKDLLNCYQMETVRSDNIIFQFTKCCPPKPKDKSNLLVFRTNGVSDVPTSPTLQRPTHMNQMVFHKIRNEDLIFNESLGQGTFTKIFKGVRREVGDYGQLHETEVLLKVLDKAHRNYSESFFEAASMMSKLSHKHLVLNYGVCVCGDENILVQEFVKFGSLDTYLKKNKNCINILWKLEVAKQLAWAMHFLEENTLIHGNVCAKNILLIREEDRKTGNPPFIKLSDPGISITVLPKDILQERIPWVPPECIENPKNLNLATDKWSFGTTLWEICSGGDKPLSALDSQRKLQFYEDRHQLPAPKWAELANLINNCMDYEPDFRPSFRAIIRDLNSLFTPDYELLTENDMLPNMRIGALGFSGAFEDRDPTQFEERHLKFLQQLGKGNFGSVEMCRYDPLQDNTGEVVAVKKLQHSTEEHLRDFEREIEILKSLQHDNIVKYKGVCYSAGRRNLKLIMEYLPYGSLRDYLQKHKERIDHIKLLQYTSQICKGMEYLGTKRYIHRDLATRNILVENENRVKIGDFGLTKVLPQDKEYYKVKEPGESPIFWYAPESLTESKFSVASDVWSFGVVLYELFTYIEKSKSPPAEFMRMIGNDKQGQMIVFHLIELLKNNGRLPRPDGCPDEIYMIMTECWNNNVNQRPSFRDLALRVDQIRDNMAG
# Test Method Notes: Z'-LYTE enzymatic activity detection, JAK2
# Assay type: biochemical
# Experimental Context: test compound 30 nM; read-out: JAK2 % inhibitory rate @30 nM
Result Type: inhibition at 0.03 µM (%)
Numeric only. Scale: %

C=CC(=O)N(C)c1cc(Nc2ncc(Cl)c(NCCCNC(=O)c3ccc(C(C)=O)cc3)n2)ccc1F    0

-- ask Returns the measured inhibition at 0.03 µM for the input compound. Input: C=CC(=O)N(C)c1cc(Nc2ncc(Cl)c(NCCCNC(=O)c3ccc(C#N)nc3)n2)ccc1F
-- reply 0

-- ask Returns the measured inhibition at 0.03 µM for the input compound. Input: C=CC(=O)N(C)c1cc(Nc2ncc(Cl)c(NCCCNC(=O)c3ccc(C(F)(F)F)cc3)n2)ccc1F
-- reply 0

-- ask Returns the measured inhibition at 0.03 µM for the input compound. Input: C=CC(=O)N(C)c1cc(Nc2ncc(Cl)c(NCCCNC(=O)c3cccc(C(F)(F)F)c3)n2)ccc1F
-- reply 0

-- ask Returns the measured inhibition at 0.03 µM for the input compound. Input: C=CC(=O)N(C)c1cc(Nc2ncc(Cl)c(NCCCNC(=O)c3c(F)cc(F)cc3F)n2)ccc1F
-- reply 0

-- ask Returns the measured inhibition at 0.03 µM for the input compound. Input: C=CC(=O)N(C)c1cc(Nc2ncc(Cl)c(NCCCNS(=O)(=O)c3ccc(C#N)cc3)n2)ccc1F
-- reply 0

-- ask Returns the measured inhibition at 0.03 µM for the input compound. Input: C=CC(=O)N(C)c1cc(Nc2ncc(Cl)c(NCCCNC(=O)c3ccc(C(F)(F)F)c(F)c3)n2)ccc1F
-- reply 0

-- ask Returns the measured inhibition at 0.03 µM for the input compound. Input: C=CC(=O)N(C)c1cc(Nc2ncc(Cl)c(NCCCNC(=O)c3ccc(F)cc3)n2)ccc1F
-- reply 0

-- ask Returns the measured inhibition at 0.03 µM for the input compound. Input: C=CC(=O)N(C)c1cc(Nc2ncc(Cl)c(NCCCNC(=O)c3ccc(CC)cc3)n2)ccc1F
-- reply 0

-- ask Returns the measured inhibition at 0.03 µM for the input compound. Input: C=CC(=O)N(C)c1cc(Nc2ncc(Cl)c(NCCCNC(=O)c3ccc(C#N)cc3F)n2)ccc1F
-- reply 0

-- ask Returns the measured inhibition at 0.03 µM for the input compound. Input: C=CC(=O)N(C)c1cc(Nc2ncc(Cl)c(NCCCNC(=O)c3ccc(C#N)c(F)c3)n2)ccc1F
-- reply 0

----------
# Target System: JAK3 (Homo sapiens (Human), UniProt P52333)
# Sequence (P52333 whole entry): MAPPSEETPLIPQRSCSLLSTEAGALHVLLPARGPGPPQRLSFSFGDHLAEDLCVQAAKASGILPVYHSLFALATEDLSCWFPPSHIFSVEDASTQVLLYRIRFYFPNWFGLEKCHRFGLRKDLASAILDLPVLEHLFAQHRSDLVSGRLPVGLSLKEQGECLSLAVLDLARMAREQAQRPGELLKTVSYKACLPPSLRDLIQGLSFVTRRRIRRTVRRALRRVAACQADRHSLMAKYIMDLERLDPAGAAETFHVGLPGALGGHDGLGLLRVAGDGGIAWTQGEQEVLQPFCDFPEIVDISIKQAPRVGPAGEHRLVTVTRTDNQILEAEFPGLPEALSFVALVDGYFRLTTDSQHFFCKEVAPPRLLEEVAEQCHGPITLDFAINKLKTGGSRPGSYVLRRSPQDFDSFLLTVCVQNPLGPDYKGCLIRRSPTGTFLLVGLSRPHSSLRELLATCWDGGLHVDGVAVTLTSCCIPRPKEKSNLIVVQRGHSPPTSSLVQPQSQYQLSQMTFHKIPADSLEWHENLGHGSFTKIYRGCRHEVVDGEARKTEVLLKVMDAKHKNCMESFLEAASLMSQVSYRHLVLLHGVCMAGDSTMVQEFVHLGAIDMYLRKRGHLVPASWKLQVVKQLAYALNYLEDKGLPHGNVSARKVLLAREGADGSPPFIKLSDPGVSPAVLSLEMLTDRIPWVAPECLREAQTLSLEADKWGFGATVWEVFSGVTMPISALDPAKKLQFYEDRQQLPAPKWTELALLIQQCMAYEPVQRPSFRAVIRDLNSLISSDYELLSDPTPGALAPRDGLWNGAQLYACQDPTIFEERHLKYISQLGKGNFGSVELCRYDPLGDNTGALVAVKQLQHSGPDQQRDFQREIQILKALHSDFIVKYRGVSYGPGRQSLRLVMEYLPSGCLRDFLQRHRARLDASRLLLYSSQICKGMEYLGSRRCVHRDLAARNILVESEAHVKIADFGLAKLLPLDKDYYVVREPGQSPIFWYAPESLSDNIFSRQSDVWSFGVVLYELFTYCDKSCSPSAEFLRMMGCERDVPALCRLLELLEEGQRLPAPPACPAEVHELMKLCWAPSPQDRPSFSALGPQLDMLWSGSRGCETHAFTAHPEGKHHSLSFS
# Test Method Notes: Z'-LYTE enzymatic activity detection, JAK3
# Type: biochemical
# Experimental Context: test compound 30 nM; read-out: JAK3 % inhibitory rate @30 nM
Measured inhibition at 0.03 µM, listed per entry.
Numeric only. Scale: %

Field: example entries. Status: answers known.
C=CC(=O)N(C)c1cc(Nc2ncc(Cl)c(OCCCNC(=O)c3ccc(C#N)cc3)n2)ccc1F    95
C=CC(=O)N(C)c1cc(Nc2ncc(Cl)c(NCCCNC(=O)c3ccc(C#N)cc3F)n2)ccc1F    105
C=CC(=O)N(C)c1cc(Nc2ncc(Cl)c(NCCCNC(=O)c3ccc(C#N)c(F)c3)n2)ccc1F    116
C=CC(=O)N(C)c1cc(Nc2ncc(Cl)c(NCCCNS(=O)(=O)c3ccc(C#N)cc3)n2)ccc1F    103
C=CC(=O)N(C)c1cc(Nc2ncc(Cl)c(NCCCNC(=O)C3CCN(C)CC3)n2)ccc1F    35

-- ask Returns the measured inhibition at 0.03 µM for the input compound. Input: C=CC(=O)N(C)c1cc(Nc2ncc(Cl)c(NCCCNC(=O)c3cc(F)c(F)c(F)c3F)n2)ccc1F
-- reply 84

-- ask Returns the measured inhibition at 0.03 µM for the input compound. Input: C=CC(=O)N(C)c1cc(Nc2ncc(C)c(NCCCNC(=O)c3ccc(C(F)(F)F)cc3)n2)ccc1F
-- reply 71
